Values from patent US20220313698A1

# ASSAYED TARGET: UniProt P13569
# MEASUREMENT DESCRIPTION: Corrector Assay A - membrane potential dye assay (enteroid cells)
# TEST SETTINGS: % of chloride transport of triple combination control (1 μM (14S)-dispiro macrocycle + 3 μM tezacaftor + 300 nM ivacaftor)
REPORTED ENDPOINT: Corrector Assay A % activity

Cc1ccc2cc3c(nc2c1)N1C[C@@H](CC[C@@H](c2cc(C(C)(C)C)ccn2)Nc2cccc(n2)S(=O)(=O)NC3=O)CC1(C)C (single isomer, unassigned) [Compound 7] = +++ (+++ is >60%)
CC(C)(C)c1ccc2c(n1)N1C[C@@H](CCC(c3ccc(C#N)cn3)Nc3cccc(n3)S(=O)(=O)NC2=O)CC1(C)C (stereo partly shown) [Compound 204] = +++ (+++ is >60%)

====

# ASSAYED TARGET: CFTR-mediated chloride transport (Homo sapiens, UniProt P13569)
# MEASUREMENT DESCRIPTION: Corrector Assay A - membrane potential dye assay (enteroid cells)
# TEST SETTINGS: % of chloride transport of triple combination control (1 μM (14S)-dispiro macrocycle + 3 μM tezacaftor + 300 nM ivacaftor)
REPORTED ENDPOINT: Corrector Assay A % activity

CC1(C)C[C@@H]2CC[C@H](c3ccccn3)Nc3cccc(n3)S(=O)(=O)NC(=O)c3ccc(C#N)nc3N1C2 = +++ (+++ is >60%)
CN1CCN(c2cccc([C@@H]3CC[C@@H]4CN(c5nc(C(C)(C)C)ccc5C(=O)NS(=O)(=O)c5cccc(n5)N3)C(C)(C)C4)n2)CC1 = ++ (++ is 30-60%)
CC(C)(C)CCOc1cccc(-c2ccc3c(n2)N2C[C@@H](CC[C@H](c4cc(C(C)(C)C)ccn4)Nc4cccc(n4)S(=O)(=O)NC3=O)CC2(C)C)n1 = +++ (+++ is >60%)
CC(C)(C)c1ccc2c(n1)N1C[C@@H](CCC3CCCC(=O)N3c3cccc(n3)S(=O)(=O)NC2=O)CC1(C)C (some centres unmarked) = ++ (++ is 30-60%)

====

# ASSAYED TARGET: CFTR-mediated chloride transport (Homo sapiens)
# MEASUREMENT DESCRIPTION: Corrector Assay A - membrane potential dye assay (enteroid cells)
# TEST SETTINGS: read-out: Corrector Assay A EC50; human intestinal enteroid cells, 18-24 h incubation; acute 10 μM forskolin + 300 nM ivacaftor
REPORTED ENDPOINT: EC50

C=CCC1CC[C@@H]2CN(c3nc(C(C)(C)C)ccc3C(=O)NS(=O)(=O)c3cccc(n3)N1)C(C)(C)C2 (single isomer, unassigned) [Compound 35] = < 1000 nM
CC(C)(C)c1ccc2c(n1)N1C[C@@H](CCC(c3cc(C#N)ccn3)Nc3cccc(n3)S(=O)(=O)NC2=O)CC1(C)C (single isomer, unassigned) [Compound 143] = < 1000 nM
CC(C)(C)c1ccnc([C@@H]2CC[C@@H]3CN(c4nc5ccccc5cc4C(=O)NS(=O)(=O)c4cccc(n4)N2)C(C)(C)C3)c1 (single isomer, unassigned) [Compound 9] = < 1000 nM
CC(C)(C)c1ccc2c(n1)N1C[C@@H](CCC(c3cc(C4CCNCC4)ccn3)Nc3cccc(n3)S(=O)(=O)NC2=O)CC1(C)C (some centres unmarked) [Compound 123] = < 1000 nM
CC(C)(C)c1ccc2c(n1)N1C[C@@H](CC[C@H](c3cccc(C4CCNCC4)n3)Nc3cccc(n3)S(=O)(=O)NC2=O)CC1(C)C [Compound 132] = < 1000 nM

Reported EC50 for Cn1ccc(C2CC[C@@H]3CN(c4nc(C(C)(C)C)ccc4C(=O)NS(=O)(=O)c4cccc(n4)N2)C(C)(C)C3)n1 (single isomer, unassigned) [Compound 279] was < 1000 nM

The compound listed as CC(C)(C)c1ccc2c(n1)N1C[C@@H](CCC(c3ccc(-c4cn[nH]c4)cn3)Nc3cccc(n3)S(=O)(=O)NC2=O)CC1(C)C (some centres unmarked) [Compound 135] has a reported EC50 of < 1000 nM

Recorded EC50 (compound CN1CCC(C2CC[C@@H]3CN(c4nc(C(C)(C)C)ccc4C(=O)NS(=O)(=O)c4cccc(n4)N2)C(C)(C)C3)CC1 (single isomer, unassigned) [Compound 240] ): 1000 to 3000 nM
